Attribution: patent US20230331827A1

ASSAYED TARGET: human Kv1.3 (human) (UniProt P22001)
Sequence (P22001 whole entry): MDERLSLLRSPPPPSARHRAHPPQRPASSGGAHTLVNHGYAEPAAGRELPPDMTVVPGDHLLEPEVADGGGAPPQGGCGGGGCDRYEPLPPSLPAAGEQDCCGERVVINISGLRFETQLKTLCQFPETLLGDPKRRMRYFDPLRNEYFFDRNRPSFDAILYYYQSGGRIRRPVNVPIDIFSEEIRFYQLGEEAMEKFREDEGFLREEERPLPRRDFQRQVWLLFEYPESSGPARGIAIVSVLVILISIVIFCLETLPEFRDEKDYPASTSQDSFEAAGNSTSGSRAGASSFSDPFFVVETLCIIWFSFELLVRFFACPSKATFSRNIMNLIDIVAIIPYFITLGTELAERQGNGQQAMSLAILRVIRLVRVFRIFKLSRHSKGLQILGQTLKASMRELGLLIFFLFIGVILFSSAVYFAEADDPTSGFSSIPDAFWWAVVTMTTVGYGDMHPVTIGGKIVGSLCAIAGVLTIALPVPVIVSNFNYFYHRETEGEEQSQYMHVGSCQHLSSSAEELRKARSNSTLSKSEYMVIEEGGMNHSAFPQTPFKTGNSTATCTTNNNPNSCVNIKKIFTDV
ASSAY DETAILS: cell-based or functional assay
QUANTITY KIND: IC50, huKv1.3 current, QPatch patch clamp (nM)
Write the answer as a number in nM, unit excluded.

The reported value for KB_A07_KTX (antibody, V domains shown) VH: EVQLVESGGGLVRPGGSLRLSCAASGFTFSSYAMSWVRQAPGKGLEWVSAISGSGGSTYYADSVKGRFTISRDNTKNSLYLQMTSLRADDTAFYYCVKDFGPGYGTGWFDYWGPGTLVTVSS VL: DIQMTQSPSSLSASVGDRVTITCRASQSISSYLNWYQQKPGKAPKLLIYAAGVGVEINVKCSGSPQCLKPCKDAGMRFGKCMNRKCHCTPKSRSGVPSRFSGSGSGTDFTLTISSLQPEDFATYYCQQGASPPYTFGQGTKVEIKR in terms of IC50, huKv1.3 current, QPatch patch clamp is 900
